assay explanation: Long-term storage stability of antibiotics in combination with fosfomycin spiked in plasma/CAMHB (−30 °C, −80 °C)
Type: physicochemical
condition notes: plasma, combination with fosfomycin, 2 weeks at -30 °C; MQC (nominal as E14)
readout label: Mean accuracy (%), Table S11

C[C@]1(Cn2ccnn2)[C@H](C(=O)O)N2C(=O)C[C@H]2S1(=O)=O : 104.6%
Cn1c(N)c(NC(=O)NCCN)c[n+]1CC1=C(C(=O)O)N2C(=O)[C@@H](NC(=O)/C(=N\OC(C)(C)C(=O)[O-])c3nsc(N)n3)[C@H]2SC1 : 86.4%
CO/N=C(\C(=O)N[C@@H]1C(=O)N2C(C(=O)[O-])=C(C[N+]3(C)CCCC3)CS[C@H]12)c1csc(N)n1 [Cefepime, cefepime] : 87.2%
C[C@@H]1O[C@@H]1P(=O)(O)O : 92.1%
NC(=O)[C@@H]1CC[C@@H]2CN1C(=O)N2OS(=O)(=O)O : 99.4%
CN(C)c1cc(NC(=O)CNC(C)(C)C)c(O)c2c1C[C@H]1C[C@H]3[C@H](N(C)C)C(O)=C(C(N)=O)C(=O)[C@@]3(O)C(O)=C1C2=O : 98.9%
C[C@@H](O)[C@H]1C(=O)N2C(C(=O)O)=C(S[C@@H]3CN[C@H](CNS(N)(=O)=O)C3)[C@H](C)[C@H]12 : 97.0%
C[C@H]1[C@H](NC(=O)/C(=N\OC(C)(C)C(=O)O)c2csc(N)n2)C(=O)N1S(=O)(=O)O : 90.2%
CCN1CCN(C(=O)N[C@@H](C(=O)N[C@@H]2C(=O)N3[C@@H]2SC(C)(C)[C@@H]3C(=O)O)c2ccccc2)C(=O)C1=O : 92.7%
C[C@@H](O)[C@H]1C(=O)N2C(C(=O)O)=C(S[C@@H]3CN[C@H](C(=O)N(C)C)C3)[C@H](C)[C@H]12 : 89.7%
CC(C)(O/N=C(\C(=O)N[C@@H]1C(=O)N2C(C(=O)[O-])=C(C[n+]3ccccc3)CS[C@H]12)c1csc(N)n1)C(=O)O : 105.0%

----------
A collection of molecules and their measured Mean accuracy (%), Table S9
assay explanation: Autosampler stability at 4 °C of extracted antibiotic-spiked plasma/CAMHB samples
condition notes: plasma extracted samples, 15 h autosampler 4 °C; MQC (nominal as E14)
readout label: Mean accuracy (%), Table S9

NC(=O)[C@@H]1CC[C@@H]2CN1C(=O)N2OS(=O)(=O)O : 99.3
C[C@@H]1O[C@@H]1P(=O)(O)O : 101.8
C[C@@H](O)[C@H]1C(=O)N2C(C(=O)O)=C(S[C@@H]3CN[C@H](C(=O)N(C)C)C3)[C@H](C)[C@H]12 : 98.9
CN(C)c1cc(NC(=O)CNC(C)(C)C)c(O)c2c1C[C@H]1C[C@H]3[C@H](N(C)C)C(O)=C(C(N)=O)C(=O)[C@@]3(O)C(O)=C1C2=O : 106.3
Cn1c(N)c(NC(=O)NCCN)c[n+]1CC1=C(C(=O)O)N2C(=O)[C@@H](NC(=O)/C(=N\OC(C)(C)C(=O)[O-])c3nsc(N)n3)[C@H]2SC1 : 90.0
CCN1CCN(C(=O)N[C@@H](C(=O)N[C@@H]2C(=O)N3[C@@H]2SC(C)(C)[C@@H]3C(=O)O)c2ccccc2)C(=O)C1=O : 86.8
